Test: HCV J6/JFH-1 viral RNA reduction – Huh-7.5 cells, quantitative PCR, fluorescence, counter-screen for HCV core dimerization inhibitor project, late-stage follow-up (AID 485271)
Settings: Huh-7.5 HCV J6/JFH-1 infection, RT-qPCR viral RNA; time point 2
parameterMeasured: IC50

// lookup IC50 for `Cc1ccc(Cc2c(C)nc3nc(SCC(=O)NCCCN4CCCCCC4)nn3c2C)cc1`
12 µM
